System: Plasmodium falciparum
Assay: Antimalarial activity against chloroquine-resistant Plasmodium falciparum
Type: functional, organism-based
measuredMetric: IC50 (nM)
# output: bare number, implied unit nM

Below are worked cases with known answers.
Clc1ccc2c(NCCNC3CCC4(CC3)OOC3(c5ccccc5)CC(c5ccccc5)=CC3O4)ccnc2c1 (stereo not drawn) : 20
CC1(C)COC2(CCC(NC3CCC(Nc4ccnc5cc(Cl)ccc45)CC3)CC2)OO1 (stereo not drawn) : 7

Now, please, on to the next compound.
response.value for CC(C)C1=C[C@H]2OC3(CCC(NCCNc4ccnc5cc(Cl)ccc45)CC3)OO[C@@]2(C)CC1.O=C(O)CC(O)(CC(=O)O)C(=O)O (stereo partly drawn) (field: IC50) = 5

###

Assay: Oral bioavailability in rat at 50 mg/kg
Assay type: ADME, organism-based
Details: in vivo
measuredMetric: bioavailability (%)
Response body: numeric value in %, unit text excluded.

Record `C[C@@H]1CC[C@H]2[C@@H](C)[C@](O)(C(F)(F)F)O[C@@H]3O[C@@]4(C)CC[C@@H]1[C@]32OO4` . Reported bioavailability: 28

###

Experiment: Drug degradation at 40 degC after 3 months
Assay type: physicochemical
Settings: read-out: Drug degradation
measuredMetric: degraded at 2191.5 h (%)
Value expressed in %; do not type the unit.

# degraded at 2191.5 h (molecule: `C[C@H]1[C@@H](O)O[C@@H]2O[C@@]3(C)CC[C@H]4[C@H](C)CC[C@@H]1[C@@]24OO3` ) is 2.9
